- TARGET_OR_TEST_SYSTEM: T1, hFLT3-His fusion protein (human, UniProt P36888 27-541, limits assumed)
- T1 construct: Soluble recombinant antigen used for immunisation, ELISA, SPR and BLI binning; also called recombinant hFLT3 protein; not shown: His tag
- T1 sequence (looked up): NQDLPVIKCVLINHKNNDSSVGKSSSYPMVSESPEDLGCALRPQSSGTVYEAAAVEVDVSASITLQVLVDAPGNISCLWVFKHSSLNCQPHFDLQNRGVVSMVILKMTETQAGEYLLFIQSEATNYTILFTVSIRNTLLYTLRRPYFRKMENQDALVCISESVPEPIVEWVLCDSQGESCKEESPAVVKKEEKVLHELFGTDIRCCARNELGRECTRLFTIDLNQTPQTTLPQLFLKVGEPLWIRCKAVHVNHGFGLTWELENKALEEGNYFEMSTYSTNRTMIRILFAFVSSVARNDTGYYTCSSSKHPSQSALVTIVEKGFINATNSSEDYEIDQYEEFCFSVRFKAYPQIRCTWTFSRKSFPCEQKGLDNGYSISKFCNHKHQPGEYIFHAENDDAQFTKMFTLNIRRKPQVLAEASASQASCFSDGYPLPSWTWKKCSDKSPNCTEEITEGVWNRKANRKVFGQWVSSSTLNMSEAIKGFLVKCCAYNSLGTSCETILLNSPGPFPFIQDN
- ASSAY_TEXT: SPR, purified murine subclone mAb, hFLT3-His
REPORTED_METRIC: kon (M⁻¹ s⁻¹)
Write down the numeric answer in M⁻¹ s⁻¹ and omit the unit.

INSERT INTO results (binder, reported_metric, test_result) VALUES
  ('12C9.E5 (antibody, V domains shown, Purified murine mAb from a hybridoma subclone) VH: EVQLQESGAELVRPGASVKLSCKASGYIFTDYEIHWVKQTPVHGLEWIGAIDPETGITAYSQKFKGKATLTTDTSSSTAYMEFRSLTSEDSAVYYCTRGGLLYWGQGTSVTVSS VL: DVVMTQTPLSLSVTIGQPASISCKSSQSLLYSDGETYLNWLQQRPGQSPKRLMYQVSKLDPGIPDRFSGSGSETDFTLKISRVEAEDLGIYYCLQGTFYPHTFGGGTKLEIK', 'kon', 34000),
  ('1A2.A3 (antibody, V domains shown, Purified murine mAb from a hybridoma subclone) VH: EVQLQESGPELVKPGASVKISCKASGYSFTGYYIHWVKQSPEESLEWIGEIYPNTGITTYNQKFTAKATLTVDKSSNTAYMQLKSLTSEDSAVYYCTRWGDYYGRDYWGQGTSVTVSS VL: DIVLTQSPASLAVSLGQRATISCRASETVDTHGNSFMHWYQQKPGQPPKLLIYRASNLESGIPARFSGSGSRTDFTLTINPVEADDVATYYCQQSNEDPRTFGGGTKLEIK', 'kon', 110000);

# evaluate next
Please report kon for the following binder: 4H2.E3 (antibody, V domains shown, Purified murine mAb from a hybridoma subclone) VH: EVQLQESGPELVKPGASVKMSCKASGYTFTSYLMHWMKQKPGQGLEWIGYINPYSDGIKYNEKFRDKATLTSDKSSNTAYMELSSLTSEDSAVYYCAHSSGYVGYAMDYWGQGTSVTVSS VL: GIVMTQTTPSVPVTPGESVSISCRSSKSLLHSNGNTYLYWFLQRPGQSPQLLIYRMSNLASGVPDRFSGSGSGTTFTLRISRVEAEDVGVYYCMQHLEYPFTFGSGTKLEIK
57000
